- Test system: Candida parapsilosis
- EXPERIMENT_SUMMARY: Antifungal activity against Candida parapsilosis ATCC 22019 assessed as reduction in fungal cell growth incubated for 48 hrs by broth microdilution method
- Format: functional
- CONDITION_SUMMARY: Lodderomyces parapsilosis, ATCC 22019, 48 h
Could you please report measured MIC for the items listed next?

For every record below, what is its MIC?
1. C[C@H](n1nnc(CCN2CCN(c3ccccc3)CC2)n1)[C@](O)(Cn1cncn1)c1ccc(F)cc1F
2. C[C@H](n1nnnc1CCN1CCN(c2ccccc2)CC1)[C@](O)(Cn1cncn1)c1ccc(F)cc1F

Result:
["0.25 to 16 µg/mL", "0.12 to 16 µg/mL"]

Query: Name the recorded MIC for CC(n1nnc(CCN2CCN(c3ccc([N+](=O)[O-])cc3)CC2)n1)C(O)(Cn1cncn1)c1ccc(F)cc1F (stereo not drawn) .
Result: 1 to 16 µg/mL
